Attribution: patent US8309558B2

# pIC50 per entry
Target: HCV NS5B RdRp genotype 1b (Hepatitis C virus genotype 1b, UniProt Q9WMX2)
Construct: The protein was expressed with an 18 amino acid C-terminal truncation to enhance the solubility; made in house; host or cells: E. coli BL21(DE3), pET21a vector
Sequence (Q9WMX2 2420-2992): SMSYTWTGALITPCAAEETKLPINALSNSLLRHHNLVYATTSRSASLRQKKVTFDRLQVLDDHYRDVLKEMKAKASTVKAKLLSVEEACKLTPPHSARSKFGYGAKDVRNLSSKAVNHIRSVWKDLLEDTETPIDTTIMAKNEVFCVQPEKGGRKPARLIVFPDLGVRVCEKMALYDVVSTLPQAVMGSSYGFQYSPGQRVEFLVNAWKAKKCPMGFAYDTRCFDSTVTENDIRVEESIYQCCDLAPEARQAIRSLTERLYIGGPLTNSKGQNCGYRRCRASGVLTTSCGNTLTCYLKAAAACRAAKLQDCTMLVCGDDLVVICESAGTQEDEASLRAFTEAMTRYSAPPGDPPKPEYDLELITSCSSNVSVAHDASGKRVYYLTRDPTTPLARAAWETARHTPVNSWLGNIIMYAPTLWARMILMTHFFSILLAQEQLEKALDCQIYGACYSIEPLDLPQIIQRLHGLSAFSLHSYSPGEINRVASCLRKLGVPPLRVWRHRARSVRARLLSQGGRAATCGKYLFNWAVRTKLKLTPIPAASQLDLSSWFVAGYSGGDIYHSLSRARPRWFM
Assay: Standard HCV NS5B RdRp enzyme assay
Format: biochemical
Details: Table 1d (class symbols); HCV NS5B RdRp genotype 1b; read-out: IC50
Procedure: HCV NS5B RdRp cloning, expression, and purification. The cDNA encoding the NS5B protein of HCV, genotype 1b, was cloned into the pET21a expression vector. The protein was expressed with an 18 amino acid C-terminal truncation to enhance the solubility. […] Standard HCV NS5B RdRp enzyme assay. […] Plates were read on a Packard Top Count NXT after >1 hr incubation at room temperature. IC50 values for compounds were determined using seven different [I]. […]
pIC50: −log10 of the molar value.

Completed entries (count: 8):
# MOLECULE, ASSAY_TARGET, pIC50
rows = [
    ("CNC(=O)c1c(-c2ccc(F)cc2)oc2ccc(-c3cc(C(=O)NC4(c5cn(C)cn5)CC4)ccc3C)cc12", "HCV NS5B RdRp genotype 1b (Hepatitis C virus genotype 1b, UniProt Q9WMX2)", "> 7.70"),
    ("CNC(=O)c1c(-c2ccc(F)cc2)oc2ccc(-c3cc(C(=O)NC4(c5cccc(C)n5)CC4)c(OC)cc3C)cc12", "HCV NS5B RdRp genotype 1b (Hepatitis C virus genotype 1b, UniProt Q9WMX2)", "6.60 to 9.00"),
    ("CNC(=O)c1c(-c2ccc(F)cc2)oc2ccc(-c3cc(C(=O)NC4(c5ncc(C)o5)CC4)c(OC)cc3C)cc12", "HCV NS5B RdRp genotype 1b (Hepatitis C virus genotype 1b, UniProt Q9WMX2)", "> 7.70"),
    ("CNC(=O)c1c(-c2ccc(F)cc2)oc2ccc(-c3cc(C(=O)NC4(c5ccccn5)CC4)c(OCCC(N)=O)cc3C)cc12", "HCV NS5B RdRp genotype 1b (Hepatitis C virus genotype 1b, UniProt Q9WMX2)", "> 7.70"),
    ("CNC(=O)c1c(-c2ccc(F)cc2)oc2ccc(-c3cc(C(=O)NC4(c5cnccn5)CC4)c(OC)cc3C)cc12", "HCV NS5B RdRp genotype 1b (Hepatitis C virus genotype 1b, UniProt Q9WMX2)", "6.60 to 9.00"),
    ("CNC(=O)c1c(-c2ccc(F)cc2)oc2ccc(-c3cc(C(=O)NC4(c5ocnc5C)CC4)c(OC)cc3C)cc12", "HCV NS5B RdRp genotype 1b (Hepatitis C virus genotype 1b, UniProt Q9WMX2)", "6.60 to 9.00"),
    ("CCCOc1cc(C)c(-c2ccc3oc(-c4ccc(F)cc4)c(C(=O)NC)c3c2)cc1C(=O)NC1(c2ccccn2)CC1", "HCV NS5B RdRp genotype 1b (Hepatitis C virus genotype 1b, UniProt Q9WMX2)", "6.60 to 9.00"),
    ("CCOc1cc(C)c(-c2ccc3oc(-c4ccc(F)cc4)c(C(=O)NC)c3c2)cc1C(=O)NC1(c2ccccn2)CC1", "HCV NS5B RdRp genotype 1b (Hepatitis C virus genotype 1b, UniProt Q9WMX2)", "6.60 to 9.00"),
]

INPUT: Reported pIC50 for CNC(=O)c1c(-c2ccc(F)cc2)oc2ccc(-c3cc(C(=O)NC4(c5ccccn5)CC4)c(OCC(N)=O)cc3C)cc12 : what is it?
OUTPUT: > 7.70

INPUT: For the molecule shown here, CNC(=O)c1c(-c2ccc(F)cc2)oc2ccc(-c3cc(C(=O)NC4(c5ccccn5)CC4)c(OCc4cnccn4)cc3C)cc12 [drawing 660] , give the reported pIC50.
OUTPUT: 6.60 to 9.00

INPUT: Tell me the measured pIC50 of CNC(=O)c1c(-c2ccc(F)cc2)oc2ccc(-c3cc(C(=O)NC4(c5ncccn5)CC4)cc(F)c3C)c(F)c12 [drawing 668] , please.
OUTPUT: 6.60 to 9.00

INPUT: Record request: pIC50 value, item CNC(=O)c1c(-c2ccc(F)cc2)oc2ccc(-c3cc(C(=O)NC4(c5ccccn5)CC4)c(OCC4CC4)cc3C)cc12
OUTPUT: 6.60 to 9.00

INPUT: // query pIC50 value for entry C#CCOc1cc(C)c(-c2ccc3oc(-c4ccc(F)cc4)c(C(=O)NC)c3c2)cc1C(=O)NC1(c2ccccn2)CC1
OUTPUT: 6.60 to 9.00

INPUT: # input molecule: CNC(=O)c1c(-c2ccc(F)cc2)oc2ccc(-c3cc(C(=O)NC4(c5ccccn5)CC4)c(OCC(C)C)cc3C)cc12 ; wanted: its pIC50
OUTPUT: 6.60 to 9.00
